Please go through the items and note down their IC50.
Target: T1, hUPF1 (full-length) (Homo sapiens, UniProt Q92900-2 1-1118)
T1 sequence: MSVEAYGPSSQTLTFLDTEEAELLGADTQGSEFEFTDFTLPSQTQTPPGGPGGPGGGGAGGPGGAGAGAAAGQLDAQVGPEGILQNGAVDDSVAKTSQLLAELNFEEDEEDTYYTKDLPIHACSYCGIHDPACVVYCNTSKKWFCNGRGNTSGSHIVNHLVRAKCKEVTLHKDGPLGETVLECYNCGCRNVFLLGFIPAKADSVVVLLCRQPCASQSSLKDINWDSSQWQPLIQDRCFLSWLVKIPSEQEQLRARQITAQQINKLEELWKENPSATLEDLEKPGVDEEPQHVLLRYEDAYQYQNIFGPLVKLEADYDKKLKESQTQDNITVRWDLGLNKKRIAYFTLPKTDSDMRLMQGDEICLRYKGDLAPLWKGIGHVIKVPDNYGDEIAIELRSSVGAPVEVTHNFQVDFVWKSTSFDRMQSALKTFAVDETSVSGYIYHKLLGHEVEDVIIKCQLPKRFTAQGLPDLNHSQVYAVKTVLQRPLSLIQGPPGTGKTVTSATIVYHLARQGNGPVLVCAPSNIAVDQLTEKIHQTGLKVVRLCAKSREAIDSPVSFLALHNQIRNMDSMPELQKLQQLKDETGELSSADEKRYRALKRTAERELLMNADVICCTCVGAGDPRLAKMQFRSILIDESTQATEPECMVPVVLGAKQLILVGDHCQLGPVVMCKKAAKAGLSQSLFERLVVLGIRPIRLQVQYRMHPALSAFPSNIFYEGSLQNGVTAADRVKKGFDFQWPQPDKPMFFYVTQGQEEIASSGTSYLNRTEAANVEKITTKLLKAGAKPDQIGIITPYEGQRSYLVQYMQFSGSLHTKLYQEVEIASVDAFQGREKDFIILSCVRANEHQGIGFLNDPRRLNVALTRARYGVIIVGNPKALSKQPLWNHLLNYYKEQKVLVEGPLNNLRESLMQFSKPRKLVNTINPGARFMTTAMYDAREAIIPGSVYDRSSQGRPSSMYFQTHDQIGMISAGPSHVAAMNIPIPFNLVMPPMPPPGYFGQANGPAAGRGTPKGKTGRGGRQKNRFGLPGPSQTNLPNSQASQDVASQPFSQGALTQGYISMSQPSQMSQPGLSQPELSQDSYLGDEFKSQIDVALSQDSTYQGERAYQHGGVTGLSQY
Test: competition; vs 0.25 nM 32P-DNA35, 10 nM hUPF1; 25 mM HEPES-NaOH pH 7.2, 135 mM NaCl, 2 mM DTT, 1 mg/ml acetylated BSA, 0.1% NP40, 20 min; EMSA 20 C, MST 22 C (20 nM DNA); no nucleotide cofactor or Mg2+ unles
Conditions: protein: recombinant; tags: GST and His tags removed (thrombin, TEV); residual ENLYFQ linker likely at C-terminus; label: 32P (EMSA)
Give bare numbers, in nM.

Worked examples follow.
{"columns": ["Binder", "IC50 / nM"],
 "data": [
  ["UUUUUUUUUUUUUUUUUUUUUUUUUUUUUUUUUUU (ssRNA) [(U)35]", 12.3],
  ["CACAAGCAACCAAUCGGUUCGACACUCAUACUGGC (ssRNA) [RNA35]", 50.4]
]}

input: // returns reported IC50 for input AAAAAAAAAAAAAAAAAAAAAAAAAAAAAAAAAAA (ssRNA) [(A)35]
output: 172

The reported numbers originate from paper PMC5499549.
